- MEASURED ON: UniProtKB P61964
- PROTOCOL SUMMARY: in vitro NanoBRET tracer displacement
MEASUREMENT TYPE: IC50

> print(dat)
                                   compound  result
1  CC(=O)N[C@H](C(=O)N1C[C@H](O)C[C@H]1C(=O)NCc1ccc(-c2scnc2C)cc1)C(C)(C)C [VH032, reference compound]  > 3 µM
